Where do these numbers come from? They come from patent US20210380703A1.

- system-tested: human Fc (human)
- experiment: ELISA, negative control
Listed here are binders together with their documented optical density.
# unit: OD | format: bare number

Below, each entry is followed by its recorded optical density result.
*Q* Look up optical density: 366_A04 (antibody, V domains shown) VH: EVQLLESGGGLVQPGGSLRLSCAASGFTFSSYGMNWVRQAPGKGLEWVAGINYNGGYTSYADSVKGRFTISRDNSKNTLYLQMNSLRAEDTAVYYCARAANWHDTALDYWGQGTLVTVSS VL: DIQMTQSPSSLSASVGDRVTITCRASQSILTYLNWYQQKPGKAPKLVIYAATSLASGVPSRFSGSGSGTDFTLTISSLQPEDFATYYCQQSDDSPLTFGGGTKVEIK
*A* 0.319

*Q* Dear colleague, I am looking for the recorded optical density of the following binder: 372_H03 (antibody, V domains shown) VH: EVQLLESGGGLVQPGGSLRLSCAASGFTFDSYGMNWVRQAPGKGLEWVSNINYNGGYKSYADSVKGRFTISRDNSKNTLYLQMNSLRAEDTAVYYCARSATWHDTHLDYWGQGTLVTVSS VL: DIQMTQSPSSLSASVGDRVTITCRASQSIITYVNWYQQKPGKAPKLLIYAATSLASGVPSRFSGSGSGTDFTLTISSLQPEDFATYYCQQSYNLPLTFGGGTKVEIK
*A* 0.437

# next binder below
*Q* So what's the measured optical density for this one? 366_E07 (antibody, V domains shown) VH: EVQLLESGGGLVQPGGSLRLSCAASGFTFDSYGMHWVRQAPGKGLEWVAGINYNGGYTSYADSVKGRFTISRDNSKNTLYLQMNSLRAEDTAVYYCARAATWHDTALDYWGQGTLVTVSS VL: DIQMTQSPSSLSASVGDRVTITCRASQSILTYLNWYQQKPGKAPKLVIYAATSRHSGVPSRFSGSGSGTDFTLTISSLQPEDFATYYCQQSDNSPLTFGGGTKVEIK
*A* 0.262
